- TESTED_SYSTEM: human PAR-2 (hPAR-2) receptor expressed in HEK-293 T cells in an endogenous manner (Homo sapiens)
- Construct: human PAR-2 (hPAR-2) receptor expressed in HEK-293 T cells in an endogenous manner; endogenous in cells
- Sequence (P55085 26-397): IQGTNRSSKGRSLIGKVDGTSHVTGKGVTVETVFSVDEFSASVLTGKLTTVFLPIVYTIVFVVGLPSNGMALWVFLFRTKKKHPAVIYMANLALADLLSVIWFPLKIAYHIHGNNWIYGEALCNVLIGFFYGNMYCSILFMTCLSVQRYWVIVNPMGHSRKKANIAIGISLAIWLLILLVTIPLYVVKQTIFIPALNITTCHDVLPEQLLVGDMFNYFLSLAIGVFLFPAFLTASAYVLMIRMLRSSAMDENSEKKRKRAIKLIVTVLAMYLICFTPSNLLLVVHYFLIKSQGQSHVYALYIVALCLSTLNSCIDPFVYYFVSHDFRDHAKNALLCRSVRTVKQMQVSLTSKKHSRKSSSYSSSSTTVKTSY
- TEST_PROTOCOL: In vitro human PAR-2 functional antagonist activity using calcium assays (Fluo4AM, FLIPR Tetra)
- SETUP_CONDITIONS: HEK-293 T cells stimulated by an EC80 of the 2-Furoyl-LIGRLO-NH2 peptide after 10 min incubation with compound; 20 concentrations, duplicate, two independent experiments
TEST_READOUT: IC50

Example molecules with recorded IC50:
CC1(C)C(=O)NCCN1C(=O)c1ccc2c(n1)c(C1CCCC1)nn2-c1ccc(Cl)c(F)c1	20 to 10000 nM
CC(C)Cn1cc(-c2cc3ccccc3o2)c2ccc(C(=O)N3CCNC(=O)C3(C)C)nc21	20 to 10000 nM
CC(C)Cc1nn(-c2ccc(Cl)c(F)c2)c2ccc(C(=O)N3CCC4(CC3)NC(=O)NC4=O)nc12	> 10000 nM
Cc1cc(N2CCN(C(=O)c3ccc4c(-c5ccc(Cl)c(F)c5)cn(C[C@H]5CCCO5)c4n3)C(C)(C)C2)nc(C)c1C(=O)O	< 20 nM
Cc1cc(N2CCN(C(=O)c3ccc4c(n3)c(C(C)(C)C)nn4-c3ccc(Cl)c(F)c3)C(C)(C)C2)nc(C)c1C(=O)O	< 20 nM

Exercise: Hello, please tell me recorded IC50 for this one: CN1CCN(C(=O)c2ccc3c(-c4ccc(Cl)c(F)c4)cn(C(C)(C)C)c3n2)CC1=O
Solution: 20 to 10000 nM

Exercise: Hello, please tell me recorded IC50 for this one: CC(C)Cc1nn(-c2cccc(Cl)c2)c2ccc(C(=O)N3CCNC(=O)C3(C)C)nc12
Solution: 20 to 10000 nM
